Measured Plant response rating, Ragweed by item
# Test system: ragweed (common ragweed, Ambrosia elatior)
# experimentDescription: Test A preemergence, ragweed
# Format: in vivo
# cond: 500 g ai/ha, 0 to 100 scale (0 no effect, 100 complete control)

# molecule, testedTarget, Plant response rating, Ragweed
measured = [
    ("O=C1NCC(c2cccc(OCc3ccccc3)c2)C1C(=O)Nc1ccc(F)cc1F (centres unmarked) [Compound 64]", "ragweed (common ragweed, Ambrosia elatior)", 0),
    ("CN1CC(c2cccc(Oc3ncc(F)cn3)c2)C(C(=O)Nc2cccc(F)c2F)C1=O (single isomer, unassigned) [Compound 38]", "ragweed (common ragweed, Ambrosia elatior)", 80),
    ("O=C1NCC(c2cccc(Oc3ccc(C(F)(F)F)cn3)c2)C1C(=O)Nc1ccccc1F (single isomer, unassigned) [Compound 62]", "ragweed (common ragweed, Ambrosia elatior)", 50),
    ("O=C1NCC(c2cccc(OCc3ccco3)c2)C1C(=O)Nc1cccc(F)c1F (centres unmarked) [Compound 9]", "ragweed (common ragweed, Ambrosia elatior)", 0),
    ("O=C1NCC(c2cccc(COc3ccccc3)c2)C1C(=O)Nc1ccc(F)cc1F (centres unmarked) [Compound 20]", "ragweed (common ragweed, Ambrosia elatior)", 0),
    ("O=C1NCC(c2cccc(Cn3cccn3)c2)C1C(=O)Nc1ccc(F)cc1F (centres unmarked) [Compound 28]", "ragweed (common ragweed, Ambrosia elatior)", 0),
    ("O=C1NCC(c2cccc(Cn3ccc(C(F)(F)F)n3)c2)C1C(=O)Nc1ccc(F)cc1F (centres unmarked) [Compound 24]", "ragweed (common ragweed, Ambrosia elatior)", 0),
    ("O=C1NCC(c2cccc(Cn3cccn3)c2)C1C(=O)Nc1ccc(F)c(F)c1F (centres unmarked) [Compound 26]", "ragweed (common ragweed, Ambrosia elatior)", 0),
]

Values compiled from patent US10405547B2.
